EXPERIMENT_SUMMARY: G protein-coupled receptor (GPCR) small molecule agonists, calcium flux assay: HEK293 wild type cell line counter screen (AID 1920065); note: potency is the fitted concentration of half-maximal effect
ASSAY_SETUP: HEK293 WT calcium flux, fluorescence, agonist mode; series mostly up to 57.6 µM
Calls of active or inactive are those of the source. Calls come from the whole dose curve.
PROPERTY_MEASURED: Potency

Item: "C=C(C)C(=O)[O][Sn]([CH2]CCC)([CH2]CCC)[CH2]CCC" | Potency: 34.7 µM (active)

Potency recorded for this compound, "O=[N+]([O-])c1cc(C(F)(F)F)c(Cl)c([N+](=O)[O-])c1Nc1ncc(C(F)(F)F)cc1Cl" , is 1.23 µM (active)

# Potency (compound: "Cc1ccc(N(SC(F)(Cl)Cl)S(=O)(=O)N(C)C)cc1" ) is 38.9 µM (active)

GET /value?item= "CC(=O)[O][Sn]([c]1ccccc1)([c]1ccccc1)[c]1ccccc1" &field=Potency returns 38.9 µM (active)

Potency for "O=C1NCN(c2ccccc2)C12CCN(CCCOc1ccc(F)cc1)CC2" is 10.7 µM (active)

According to the records, this compound "C=CC(=O)[O][Sn]([CH2]CCC)([CH2]CCC)[CH2]CCC" displays Potency of 38.9 µM (active)

Entry "C[C@@H]1CC[C@@]2(OC1)O[C@H]1[C@@H](O)[C@H]3[C@@H]4CC[C@H]5C[C@@H](O[C@@H]6O[C@H](CO)[C@H](O[C@@H]7O[C@H](CO)[C@@H](O)[C@H](O[C@@H]8OC[C@@H](O)[C@H](O)[C@H]8O)[C@H]7O[C@@H]7O[C@H](CO)[C@@H](O)[C@H](O[C@@H]8O[C@H](CO)[C@@H](O)[C@H](O)[C@H]8O)[C@H]7O)[C@H](O)[C@H]6O)[C@H](O)C[C@]5(C)[C@H]4CC[C@]3(C)[C@H]1[C@@H]2C" ; Potency = 41.3 µM (active)

So, "N#CC(C#N)=NNc1cccc(Cl)c1" ? Its Potency was 2.45 µM (active)
